target: FGFR3 (UniProt P22607); assay: phosphorylation enrichment, bacterial display (enrichment ratio); higher = better substrate or ligand; peptides without Tyr show the background
Sequence (P22607 whole entry, looked up): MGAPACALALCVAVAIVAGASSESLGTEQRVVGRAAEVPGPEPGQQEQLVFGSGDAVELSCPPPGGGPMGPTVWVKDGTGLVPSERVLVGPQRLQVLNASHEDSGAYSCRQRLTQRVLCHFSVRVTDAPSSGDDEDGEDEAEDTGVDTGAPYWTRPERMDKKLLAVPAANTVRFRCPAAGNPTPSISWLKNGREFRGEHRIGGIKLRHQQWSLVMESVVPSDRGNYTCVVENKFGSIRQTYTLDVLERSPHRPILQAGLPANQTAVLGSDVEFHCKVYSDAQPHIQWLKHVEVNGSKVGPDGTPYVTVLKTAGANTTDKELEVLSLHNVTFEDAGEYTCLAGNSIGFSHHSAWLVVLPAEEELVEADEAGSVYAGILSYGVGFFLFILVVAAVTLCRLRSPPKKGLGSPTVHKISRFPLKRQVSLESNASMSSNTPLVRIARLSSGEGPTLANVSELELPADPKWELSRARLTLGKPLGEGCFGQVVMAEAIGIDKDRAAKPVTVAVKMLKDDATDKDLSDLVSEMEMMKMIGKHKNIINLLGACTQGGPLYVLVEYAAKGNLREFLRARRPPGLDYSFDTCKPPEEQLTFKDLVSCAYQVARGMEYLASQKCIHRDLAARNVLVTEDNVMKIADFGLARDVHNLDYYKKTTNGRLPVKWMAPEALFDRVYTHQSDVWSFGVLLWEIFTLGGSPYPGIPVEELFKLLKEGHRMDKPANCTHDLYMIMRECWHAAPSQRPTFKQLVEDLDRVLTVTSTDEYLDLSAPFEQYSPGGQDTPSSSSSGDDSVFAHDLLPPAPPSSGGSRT
reported metric: phosphorylation enrichment
Returns: the value as a bare number; no unit string appended.

Take a look at these entries with their results.
[[record]]
sequence_input = "HFGCVYYGTLL [MET_Y1093_H1094Y]"
target_desc = "FGFR3 (UniProt P22607)"
reported_metric = "phosphorylation enrichment"
observed = 2.19

[[record]]
sequence_input = "LKKLEYLNLAL [LRRC6_Y70]"
target_desc = "FGFR3 (UniProt P22607)"
reported_metric = "phosphorylation enrichment"
observed = 1.14


Any idea what phosphorylation enrichment was measured for LYSNAYLNDLA [ALDH1A1_Y119] ?
0.776

Could you share which phosphorylation enrichment value was measured for KILGRYYETGS [PAX2_Y72] ?
0.523

Item under review: EHTTLYSDNST [KANSL1_Y223_N225D] . Reported phosphorylation enrichment?
0.591

Fill in: phosphorylation enrichment of VLNKGYRMVVN [HINT1_Y94_G89V] is ___
0.396

Consider the sequence SDVWSYGVTMW [ZAP70_Y525] and give its measured phosphorylation enrichment.
0.847

###

target: MERTK (UniProt Q12866); assay: phosphorylation enrichment, bacterial display (enrichment ratio); higher = better substrate or ligand; peptides without Tyr show the background
Sequence (Q12866 whole entry, looked up): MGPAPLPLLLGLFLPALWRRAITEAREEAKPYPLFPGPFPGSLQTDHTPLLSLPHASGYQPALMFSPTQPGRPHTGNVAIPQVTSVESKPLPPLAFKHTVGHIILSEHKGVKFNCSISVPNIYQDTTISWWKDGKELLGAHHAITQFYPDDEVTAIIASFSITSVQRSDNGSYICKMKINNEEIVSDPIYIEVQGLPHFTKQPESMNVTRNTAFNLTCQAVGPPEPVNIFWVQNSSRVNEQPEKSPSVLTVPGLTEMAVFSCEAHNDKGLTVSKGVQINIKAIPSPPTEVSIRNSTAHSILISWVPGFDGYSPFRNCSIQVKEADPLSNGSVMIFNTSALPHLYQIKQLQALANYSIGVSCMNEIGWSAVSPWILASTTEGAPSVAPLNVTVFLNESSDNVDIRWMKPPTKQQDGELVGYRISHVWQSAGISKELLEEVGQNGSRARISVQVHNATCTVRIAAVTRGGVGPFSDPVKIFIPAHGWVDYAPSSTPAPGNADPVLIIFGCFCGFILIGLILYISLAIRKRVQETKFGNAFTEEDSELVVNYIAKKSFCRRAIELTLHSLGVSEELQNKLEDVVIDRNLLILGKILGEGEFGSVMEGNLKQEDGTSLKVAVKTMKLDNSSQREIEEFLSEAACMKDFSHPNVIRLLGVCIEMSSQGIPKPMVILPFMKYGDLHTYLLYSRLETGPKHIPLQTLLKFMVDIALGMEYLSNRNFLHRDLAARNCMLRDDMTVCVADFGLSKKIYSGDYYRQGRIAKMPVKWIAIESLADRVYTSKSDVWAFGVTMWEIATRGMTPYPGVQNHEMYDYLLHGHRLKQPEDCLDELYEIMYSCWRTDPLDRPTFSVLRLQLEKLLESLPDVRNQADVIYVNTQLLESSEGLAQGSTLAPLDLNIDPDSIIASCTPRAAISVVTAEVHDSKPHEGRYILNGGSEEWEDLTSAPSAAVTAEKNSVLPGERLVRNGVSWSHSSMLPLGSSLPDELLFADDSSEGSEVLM
# phosphorylation enrichment listing for each entry below

Known phosphorylation enrichment results, listed for orientation:
[[record]]
sequence_input = "HFGCVYYGTLL [MET_Y1093_H1094Y]"
target_desc = "MERTK (UniProt Q12866)"
reported_metric = "phosphorylation enrichment"
observed = 1.11

[[record]]
sequence_input = "NNPAFYVLEGV [INPPL1_Y987_YF]"
target_desc = "MERTK (UniProt Q12866)"
reported_metric = "phosphorylation enrichment"
observed = 0.554


Return reported phosphorylation enrichment; argument: LLARLYRGQAL [FGFR4_Y390_G388R]
0.442

# phosphorylation enrichment lookup, item DFKIIYIAPMR [SNRNP200_Y540]
0.437

Please look up its phosphorylation enrichment: PKEQRYSFLQN [GH1_Y68_K67R]
6.49

Which phosphorylation enrichment is reported for this sequence? `PGVNFYFQVSA`
0.445

Data request, read-out phosphorylation enrichment, for ARMTNYGLPRF [TSPAN12_Y138_YF]
0.511

I have this sequence here, DHCNQYEQQKM [CHD7_Y75_Y72C] , and I need its recorded phosphorylation enrichment.
0.443

###

test system: c-Src; assay: phosphorylation enrichment, bacterial display (enrichment ratio); higher = better substrate or ligand; peptides without Tyr show the background
Below: a set of entries, each annotated with reported phosphorylation enrichment.
Just the number, please, no unit after it.

[[record]]
sequence_input = "SIKDKYVTAFY [KCNH2_Y611_L615F]"
reported_metric = "phosphorylation enrichment"
observed = 0.383

[[record]]
sequence_input = "TSKLNYLDPRI [TOP1_Y723]"
reported_metric = "phosphorylation enrichment"
observed = 0.405


GET /values?readout=phosphorylation enrichment&item= EIRTQDEAMAS [GFAP_Y242_Y242D]
0.408

Would you kindly share the measured phosphorylation enrichment for GIVEEYQLPYY [BMPR1A_Y453] ?
3.47

###

target: c-Src SH2; experiment: SH2 binding enrichment of the phosphorylated peptide, bacterial display (enrichment ratio); higher = better substrate or ligand; peptides without Tyr show the background
List of SH2 binding enrichment values.

Some sequences with recorded SH2 binding enrichment:
[[record]]
sequence_input = "FHNSEYGELSE [FLT4_Y1337_Y1333H]"
observed = 0.452

[[record]]
sequence_input = "MPAVTYTPAMR [MEGF10_Y895]"
observed = 0.477

[[record]]
sequence_input = "DGQVNYEELVQ [CALM1_Y139_F142L]"
observed = 0.745

[[record]]
sequence_input = "EEDPEYKKKFR [FAM161A_Y278]"
observed = 0.751


Name the reported SH2 binding enrichment value associated with the sequence EIIPFYGMSSY [FNDC3B_Y175_T179S]
6.51

Need SH2 binding enrichment of SFHSSYSEIKD [DCLRE1C_Y322] , thanks.
22.5

Looking for the measured SH2 binding enrichment of DPEATYTTSGG [EPHA2_Y772] , can you help?
0.435

Value lookup for SH2 binding enrichment; key = AELVRYFMEHH [PTPN11_Y80_Q79R_YF]
0.625

Which measured SH2 binding enrichment value corresponds to PEADKYRLTFA [FGG_Y300_YF] ?
0.475

###

system: c-Abl (mouse); test: phosphorylation enrichment, bacterial display (enrichment ratio); higher = better substrate or ligand; peptides without Tyr show the background
reported metric: phosphorylation enrichment
// response body must contain only the number

What value of phosphorylation enrichment on c-Abl (mouse) does KKYPDYIQIAM [SGMS2_Y59] have?
0.729

Under c-Abl (mouse): phosphorylation enrichment value of VDSIEYEVASQ [SLC7A7_Y7_T5I] ?
0.821

Param readout = phosphorylation enrichment; param system = c-Abl (mouse); param query = RTESQYQENRG [LRCH3_Y354_R350T] ; response: value
0.799

c-Abl (mouse) / phosphorylation enrichment / GHEYIYVDRMQ [PDGFRB_Y581_P584R] : value?
0.607

Quick check: phosphorylation enrichment on c-Abl (mouse), item KLLPEYPGVLS [DHFR2_Y163] ?
0.497

Entry WEQELYSQLVY [WAS_Y102] , system c-Abl (mouse): what phosphorylation enrichment was measured?
1.55

Write down the reported phosphorylation enrichment of MSNFACVKREV [SCN1A_Y1694_Y1694C] , test system: c-Abl (mouse).
0.506

###

biological target: EPHB1 (UniProt P54762); assay: phosphorylation enrichment, bacterial display (enrichment ratio); higher = better substrate or ligand; peptides without Tyr show the background
Sequence (P54762 whole entry, looked up): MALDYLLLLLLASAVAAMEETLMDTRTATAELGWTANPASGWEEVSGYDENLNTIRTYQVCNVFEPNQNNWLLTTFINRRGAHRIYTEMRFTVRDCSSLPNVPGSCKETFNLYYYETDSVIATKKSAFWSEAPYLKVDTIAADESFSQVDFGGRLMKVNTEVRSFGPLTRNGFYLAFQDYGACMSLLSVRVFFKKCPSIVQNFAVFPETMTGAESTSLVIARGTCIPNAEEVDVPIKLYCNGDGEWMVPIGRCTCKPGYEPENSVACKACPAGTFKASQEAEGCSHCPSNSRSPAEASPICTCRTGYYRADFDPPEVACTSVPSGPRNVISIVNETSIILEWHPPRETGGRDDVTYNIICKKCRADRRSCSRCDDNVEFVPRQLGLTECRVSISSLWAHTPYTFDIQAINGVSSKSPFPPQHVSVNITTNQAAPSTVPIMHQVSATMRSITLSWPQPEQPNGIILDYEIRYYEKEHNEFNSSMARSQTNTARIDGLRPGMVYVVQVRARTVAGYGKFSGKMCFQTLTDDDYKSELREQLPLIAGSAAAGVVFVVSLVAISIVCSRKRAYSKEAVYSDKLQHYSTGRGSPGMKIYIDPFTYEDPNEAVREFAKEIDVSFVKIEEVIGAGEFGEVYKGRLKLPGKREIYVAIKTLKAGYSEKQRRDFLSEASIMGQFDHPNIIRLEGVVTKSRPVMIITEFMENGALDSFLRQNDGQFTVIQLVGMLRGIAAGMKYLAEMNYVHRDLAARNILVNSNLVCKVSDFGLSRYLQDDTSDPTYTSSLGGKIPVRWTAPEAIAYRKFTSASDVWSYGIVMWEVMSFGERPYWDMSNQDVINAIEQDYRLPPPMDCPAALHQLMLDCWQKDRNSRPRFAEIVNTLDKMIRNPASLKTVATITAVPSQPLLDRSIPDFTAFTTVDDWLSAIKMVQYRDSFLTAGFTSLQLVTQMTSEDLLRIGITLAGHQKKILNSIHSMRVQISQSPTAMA
Some sequences, each annotated with its measured phosphorylation enrichment.
The answer should be written as a number, with no unit following it.

[[record]]
sequence_input = "DSKIRYLSADS [TTF1_Y476_E473K]"
target_desc = "EPHB1 (UniProt P54762)"
observed = 0.465

[[record]]
sequence_input = "RGKDSYETSQL [SPP1_Y225]"
target_desc = "EPHB1 (UniProt P54762)"
observed = 0.552

[[record]]
sequence_input = "GHEYIYVDRMQ [PDGFRB_Y581_P584R]"
target_desc = "EPHB1 (UniProt P54762)"
observed = 0.796

[[record]]
sequence_input = "LKKLEYLNLAL [LRRC6_Y70]"
target_desc = "EPHB1 (UniProt P54762)"
observed = 0.81

[[record]]
sequence_input = "RNFVRYVQGLK [VWF_Y1400]"
target_desc = "EPHB1 (UniProt P54762)"
observed = 0.324


Query sequence follows.
Please look up its phosphorylation enrichment: HSGIFYKPESL [L2HGDH_Y103_YF]
0.793

###

molecular target: c-Src SH2; test: SH2 binding enrichment of the phosphorylated peptide, bacterial display (enrichment ratio); higher = better substrate or ligand; peptides without Tyr show the background
SH2 binding enrichment reference
Field format: numeric only.

As a guide, the following entries are already answered.
[[record]]
sequence_input = "RRVLVYVGRGA [QDPR_Y16_G17V]"
observed = 0.414

[[record]]
sequence_input = "ALAAPYVLYPS [CEFIP_Y1332_G1337S]"
observed = 0.762

[[record]]
sequence_input = "CTTIHYHFMCN [TP53_Y234_N235H_YF]"
observed = 1.67

[[record]]
sequence_input = "AGGTRYRFVSQ [UCN3_Y95_R91G_YF]"
observed = 0.489

[[record]]
sequence_input = "KQVEQYMSFHK [HCN1_Y417]"
observed = 0.524

[[record]]
sequence_input = "LSDGPYSNSFE [EPOR_Y485_P488S_YF]"
observed = 1.22


Fill in the blank: the reported SH2 binding enrichment of AFEQQYSPIPK [NOX1_Y373_R378K] is ____.
0.74

# get_value(readout='SH2 binding enrichment', item= GGFNNYGFGSD [HNRNPH3_Y159_N163S_YF] )
0.47

What measured SH2 binding enrichment goes with ETCLAYMEKRI [TEKT1_Y118_R119M] ?
0.445

Can you share its SH2 binding enrichment? I mean this sequence: KDKLPYLYDDP [GPX2_Y125_P126L]
1.04

Could you tell me which SH2 binding enrichment is on file for ASTDYNKRGDF [PDHA1_Y243_Y243N] ?
0.446

###

molecular target: SHP2-C SH2; assay: SH2 binding enrichment of the phosphorylated peptide, bacterial display (enrichment ratio); higher = better substrate or ligand; peptides without Tyr show the background
# binarize SH2 binding enrichment: threshold 0.8 inclusive, high side YES, low side NO

Example results:
[[record]]
sequence_input = "FQLPFYNMVPS [BMPR1A_Y458_YF]"
class_label = "NO"

[[record]]
sequence_input = "YCRHNYGVVES [HLA-DRB1_Y112]"
class_label = "YES"

[[record]]
sequence_input = "FKEIVYAVSSD [DCX_Y70_G67E]"
class_label = "NO"

[[record]]
sequence_input = "LEIETYPRLLD [KRT12_Y429_R430P]"
class_label = "NO"

[[record]]
sequence_input = "DRLASYPDKVR [KRT14_Y129_L130P]"
class_label = "NO"


Is SH2 binding enrichment at least 0.8? Consider TYTVSYLPDMS [FLNC_Y1602]
NO

Item ENPAKYDDIKK [GAPDH_Y255_K251N] with SH2 binding enrichment of 0.8 or above?
YES

Textbook exercise: given the entry NSRYTCKLEVK [USH2A_Y3747_Y3747C] , state whether its SH2 binding enrichment is greater than or equal to 0.8.
NO

Confirm if SH2 binding enrichment reported for the sequence LDAFIYNAAVL [GRIN2A_Y730_D731N] is 0.8 or above.
NO

State whether the measured SH2 binding enrichment reaches 0.8, counting equality as reaching it, for SHSMRYFSTAV [HLA-C_Y31_D33S]
NO

Could you please find out whether KQRSDYARELE [MYH3_Y1140] has SH2 binding enrichment that meets 0.8 or exceeds it?
YES

Answer whether SH2 binding enrichment of GRRGQYVMPSE [TTC7A_Y396_L399P] is greater than or equal to 0.8.
NO

Dear colleague, could you confirm whether CTLLPYYSAPV [DGKE_Y269_R273P] has SH2 binding enrichment at or above 0.8?
NO

For this sequence, is measured SH2 binding enrichment 0.8 or higher? HLTLVYGGIFL [FBP1_Y259_R255L]
YES

State whether the measured SH2 binding enrichment reaches 0.8, counting equality as reaching it, for RFWPRYVKVGS [NOG_Y172]
NO

Evaluate KIPGRYFETGS [PAX2_Y72_L69P_YF] : SH2 binding enrichment at minimum 0.8?
NO

Check the entry DGLALYTGSAL [COL6A3_Y524_S521L] : does SH2 binding enrichment equal or exceed 0.8?
NO

Threshold query (SH2 binding enrichment >= 0.8) on EEGNPYFSGAR [MCCC2_Y520_S523G_YF]
NO

Tell me whether SH2 binding enrichment is at least 0.8 here: LLRFLYFFVCS [SLC34A2_Y109_G106R]
YES

# check: SH2 binding enrichment of AGGTRYRFVSQ [UCN3_Y95_R91G_YF] is greater than or equal to 0.8
NO

Decide: is the reported value of SH2 binding enrichment for TGNPAYRSFSN [IL4R_Y497_A492T] equal to or greater than 0.8?
NO

Given the entry QSHKVYFQHLL [POR_Y604_V605F] , answer whether its SH2 binding enrichment meets or surpasses 0.8.
NO

Form field: SH2 binding enrichment at least 0.8? Entry: SILAVYSKDNY [PANK2_Y400]
NO

Could you please find out whether AVSHRYDLGGL [QPRT_Y162_A158V] has SH2 binding enrichment that meets 0.8 or exceeds it?
NO

Given the entry HEVHIYEKSGA [ARPC1B_Y35] , answer whether its SH2 binding enrichment meets or surpasses 0.8.
NO
